target: BRM (Homo sapiens, UniProt P51531); test: ATPase catalytic activity assay of BRM (ADP-Glo); format: biochemical; details: 30 nM BRM, 400 μM ATP, read-out: BRM IC50 (μM)*
Sequence (P51531 whole entry): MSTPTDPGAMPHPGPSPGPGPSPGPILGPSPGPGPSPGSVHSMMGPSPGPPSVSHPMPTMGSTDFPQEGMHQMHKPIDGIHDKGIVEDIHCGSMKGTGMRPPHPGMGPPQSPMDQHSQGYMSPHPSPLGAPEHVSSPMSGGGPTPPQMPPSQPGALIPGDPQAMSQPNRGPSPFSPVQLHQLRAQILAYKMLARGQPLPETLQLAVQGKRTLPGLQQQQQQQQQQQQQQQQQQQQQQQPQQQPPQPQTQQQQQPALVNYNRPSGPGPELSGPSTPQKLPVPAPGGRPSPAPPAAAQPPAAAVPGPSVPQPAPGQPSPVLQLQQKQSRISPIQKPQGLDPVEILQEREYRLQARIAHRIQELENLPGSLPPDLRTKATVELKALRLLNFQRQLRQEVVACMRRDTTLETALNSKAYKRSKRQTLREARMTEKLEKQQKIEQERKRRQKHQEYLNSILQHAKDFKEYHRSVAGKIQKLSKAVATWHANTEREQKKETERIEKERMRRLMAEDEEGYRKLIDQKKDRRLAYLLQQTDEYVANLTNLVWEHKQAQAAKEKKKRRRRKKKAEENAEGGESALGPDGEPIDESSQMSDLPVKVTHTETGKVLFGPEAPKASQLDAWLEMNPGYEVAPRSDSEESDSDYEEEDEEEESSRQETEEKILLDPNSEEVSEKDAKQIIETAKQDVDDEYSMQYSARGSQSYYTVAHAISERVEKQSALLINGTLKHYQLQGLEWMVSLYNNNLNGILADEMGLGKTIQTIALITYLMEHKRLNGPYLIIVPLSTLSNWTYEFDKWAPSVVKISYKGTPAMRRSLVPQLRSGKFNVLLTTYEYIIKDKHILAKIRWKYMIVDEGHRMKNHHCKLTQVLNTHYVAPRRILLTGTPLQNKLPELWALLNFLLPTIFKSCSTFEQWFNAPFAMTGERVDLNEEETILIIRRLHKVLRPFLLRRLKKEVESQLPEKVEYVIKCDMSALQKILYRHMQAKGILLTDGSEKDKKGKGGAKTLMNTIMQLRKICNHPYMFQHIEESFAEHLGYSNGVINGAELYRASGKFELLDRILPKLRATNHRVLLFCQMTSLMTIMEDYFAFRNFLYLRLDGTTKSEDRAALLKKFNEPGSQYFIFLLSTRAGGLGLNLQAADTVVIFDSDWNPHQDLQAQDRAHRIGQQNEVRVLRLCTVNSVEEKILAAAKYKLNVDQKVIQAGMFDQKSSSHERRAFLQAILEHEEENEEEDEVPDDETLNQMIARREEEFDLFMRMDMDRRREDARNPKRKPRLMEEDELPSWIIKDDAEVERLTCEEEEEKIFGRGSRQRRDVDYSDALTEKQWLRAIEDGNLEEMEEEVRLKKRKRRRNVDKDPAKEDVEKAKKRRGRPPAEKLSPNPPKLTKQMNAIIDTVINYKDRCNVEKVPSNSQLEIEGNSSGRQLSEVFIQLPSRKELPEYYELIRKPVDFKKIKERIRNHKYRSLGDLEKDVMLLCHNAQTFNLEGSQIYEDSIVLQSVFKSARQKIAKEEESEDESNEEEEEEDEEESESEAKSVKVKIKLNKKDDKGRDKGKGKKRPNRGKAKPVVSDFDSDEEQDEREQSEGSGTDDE
Recorded IC50, one value per entry.

Observe how each entry below is paired with its result.
compound: C[C@@H]1CN(c2cccc(-c3csc(NC(=O)CNC(=O)c4cccc([C@H]5COC[C@H]5O)c4)n3)n2)C[C@H](C)O1 (stereo in doubt)
IC50: 0.1 to 1 µM

compound: C[C@@H]1CN(c2cccc(-c3csc(NC(=O)CNC(=O)c4cccc(C5(C(F)F)COC5)c4)n3)c2)C[C@H](C)O1
IC50: < 0.1 µM

Pending compound:
Q: GET /values?readout=IC50&item= COc1cccc(-c2csc(NC(=O)CNC(=O)c3ccc4c(c3)C(C)(C#N)CCN4)n2)c1 (stereo not drawn)
Ans: 0.1 to 1 µM
